biological target: Botulinum neurotoxin type A (Clostridium botulinum); assay: BoNT/A light chain protease inhibitors, biochemical, multiplex microsphere flow cytometry, validation set (AID 588460); settings: at 10 µM, stronger effect = higher value
# Lookup of reported inhibition keyed by entry

{"molecule": "COc1ccc(NC2=C(Cl)C(=O)N(c3ccccc3)C2=O)c(OC)c1", "inhibition [%]": 1}
{"molecule": "OCC1CCN(Cc2cn(Cc3ccccc3)nc2-c2cc3ccccc3o2)CC1", "inhibition [%]": -0.7}
{"molecule": "COc1cc2cc(C(=O)O)n(C)c2c(OC)c1OC", "inhibition [%]": -0.4}
{"molecule": "O=C1C=CC(=O)C(C2=C3C(=O)N(CCc4ccccc4)CC(=O)N3CCC2)=C1", "inhibition [%]": -0.3}
{"molecule": "COc1ccc(C2NC(C(=O)O)Cc3c2[nH]c2ccccc32)cc1CN1CCN(c2ccc(F)cc2)CC1 (stereo not given)", "inhibition [%]": 0.4}
{"molecule": "O=C(COc1ccccc1)N1CCN(c2ccccc2)CC1", "inhibition [%]": 0}
{"molecule": "COC1CCN(C(=O)c2ccc(OC3CCN(Cc4ccccn4)CC3)cc2)CC1", "inhibition [%]": 2.3}
{"molecule": "Nc1nc(Cl)nc2c1ncn2[C@H]1C[C@H](O)[C@@H](CO)O1", "inhibition [%]": -2.6}
{"molecule": "Cc1cc(O)c(C(C)C)cc1C1(c2cc(C(C)C)c(O)cc2C)OC(=O)c2ccccc21", "inhibition [%]": -0.3}
{"molecule": "CC1=CC(C)(C)N2C(=O)C3(NCCc4c3[nH]c3ccccc43)c3cc(C)cc1c32 (stereo not given)", "inhibition [%]": -2.5}
{"molecule": "C[C@]12CC[C@H]3C(=CCc4cc(O)ccc43)[C@@H]1CCC2=O", "inhibition [%]": -0.6}
{"molecule": "CCC(C)n1ncn(-c2ccc(N3CCN(c4ccc(OCC5COC(Cn6cncn6)(c6ccc(Cl)cc6Cl)O5)cc4)CC3)cc2)c1=O (stereo not given)", "inhibition [%]": -0.4}
{"molecule": "CN(C)[C@@H]1C(=O)C(C(N)=O)=C(O)[C@@]2(O)C(=O)C3=C(O)c4c(O)ccc(Cl)c4[C@@H](O)[C@H]3C[C@@H]12", "inhibition [%]": -0.3}
{"molecule": "CN1CC[C@@]23CCCC[C@@H]2[C@@H]1Cc1ccc(O)cc13", "inhibition [%]": -1.6}
{"molecule": "COC(=O)[C@H]1[C@H]2C[C@@H]3c4[nH]c5cc(OC)ccc5c4CCN3C[C@H]2C[C@@H](OC(=O)c2ccc(N)cc2)[C@@H]1OC", "inhibition [%]": -2.3}

* * *

# Lookup of reported GFP response vs DMSO keyed by entry
assay: modulators of MEP2-GFP levels in yeast, primary screen, S. cerevisiae, multiplex flow cytometry (AID 1867);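 further: median GFP channel fluorescence of barcode-gated MEP2-GFP cells measured by flow cytometry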; conditions: S. cerevisiae MEP2-GFP strain, 3 h, at 10 µM, stronger effect = higher value
Inconclusive results are not listed.
assay.endpoint: GFP response vs DMSO (%)

{"compound": "Cc1ccc(/C=C2/C(=O)NC(=O)N(C)C2=O)cc1", "unit.name": "%", "measured.number": 96.9}
{"compound": "CC[C@@H](CO)NC(=O)[C@@H]1C=C2c3cccc4c3c(cn4C)C[C@H]2N(C)C1", "unit.name": "%", "measured.number": 103}
{"compound": "CC(=O)C1=C(C)OC(N)=C(C(=O)OC(C)C)C12C(=O)Nc1ccccc12 (stereo not drawn)", "unit.name": "%", "measured.number": 105}

* * *

test: RPL19A-GFP modulators, yeast TOR pathway, confirmation, cell-based, S. cerevisiae, flow cytometry, cherry picks, mother/daughter gates (AID 2270); conditions: S. cerevisiae RPL19A-GFP strain, 3 h, at 10 µM, stronger effect = lower value, 100 = same GFP as DMSO wells

{"compound": "N#CC(C#N)=NNc1ccc(-n2ccc(C(F)(F)F)n2)cc1", "GFP response vs DMSO / %": 98}
{"compound": "O=C1NC(=O)N(CCc2ccc(F)cc2)C(=O)/C1=C/c1ccco1", "GFP response vs DMSO / %": 98}
{"compound": "CCN(CC)c1ccc(C=C2C(=O)NC(=S)NC2=O)cc1", "GFP response vs DMSO / %": 94.7}
{"compound": "O=C1NC(=S)NC(=O)C1=Cc1ccc2c(c1)CCN2CCCCl", "GFP response vs DMSO / %": 98.4}
{"compound": "C[C@]12CCC(=O)C(O)=C1CC[C@@H]1[C@@H]2CC[C@]2(C)C(=O)CC[C@@H]12", "GFP response vs DMSO / %": 99.3}
{"compound": "CN1C(=O)C(=Cc2ccc(SC3CCCCC3)o2)C(=O)N(C)C1=O", "GFP response vs DMSO / %": 95.8}
{"compound": "COc1ccc(N2C(=O)/C(=C/c3ccco3)C(=O)NC2=S)cc1", "GFP response vs DMSO / %": 97.4}
{"compound": "CC12CN3CC(C)(CN(C1)C31CCOCC1)C2=O", "GFP response vs DMSO / %": 95.6}
{"compound": "N#CC(C#N)=Cc1ccc(N2CCCC2)cc1", "GFP response vs DMSO / %": 105}
{"compound": "Cc1ccc(N2C(=O)NC(=O)/C(=C\\c3cn(CC(=O)O)c4ccccc34)C2=O)cc1", "GFP response vs DMSO / %": 100}
{"compound": "Cc1cccn2c(NCC3CCCO3)c(C(C)C)nc12 (stereo not drawn)", "GFP response vs DMSO / %": 99.1}
{"compound": "C#C[C@]1(O)CC[C@H]2[C@@H]3CCC4=CC(=O)CC[C@]4(C)[C@H]3CC[C@@]21C", "GFP response vs DMSO / %": 97}
{"compound": "CN1CCN(c2ccc([N+](=O)[O-])c(Sc3ccccn3)c2)CC1", "GFP response vs DMSO / %": 98.4}

* * *

molecular target: Lethal factor (Bacillus anthracis) (UniProt P15917); test: Lethal factor protease inhibitors, Bacillus anthracis, multiplex microsphere cleavage assay, validation set (AID 588461); details: flow cytometry, at 10 µM, stronger effect = higher value

{"compound": "CCN1CCN(C(=S)c2ccc(OC)cc2)CC1", "inhibition / %": 11.9}
{"compound": "NCCCC(N)(C(=O)O)C(F)F (stereo unspecified)", "inhibition / %": -2.1}
{"compound": "N=C1C(c2ccccc2)=C(O)CN1CCCO", "inhibition / %": -5}
{"compound": "C=CCc1cc(Cl)ccc1OCCOCCN(C)C", "inhibition / %": -1.2}
{"compound": "CC(=O)OC1c2c(ccc3ccc(=O)oc23)OC(C)(C)C1OC(=O)CC(C)C (stereo unspecified)", "inhibition / %": -3.2}
{"compound": "Cc1ccc2c(c1)OC(=O)CC2c1ccccc1 (stereo unspecified)", "inhibition / %": -4.4}
{"compound": "COc1cc(C2Nc3ccccc3NC3=C2C(=O)CC(c2ccc(OC)c(OC)c2)C3)ccc1O (stereo unspecified)", "inhibition / %": 0}
{"compound": "CN1C(=O)CN=C(c2ccc(Cl)cc2)c2cc(Cl)ccc21", "inhibition / %": -3.5}
{"compound": "CCOC(=O)Cc1c(C)nc(N)[nH]c1=O", "inhibition / %": -3.1}
{"compound": "Cc1ccccc1C(=O)Nc1ccccc1C(=O)NCC(C)C", "inhibition / %": 1.2}
{"compound": "Cc1ccc(-n2ncc3c(Nc4cccc(C(=O)O)c4)ncnc32)cc1", "inhibition / %": 1.7}

* * *

# Lookup of reported inhibition keyed by entry
target: Lethal factor (Bacillus anthracis) (UniProt P15917); test: Lethal factor protease inhibitors, Bacillus anthracis, multiplex microsphere cleavage assay, validation set (AID 588461); details: flow cytometry, at 10 µM, stronger effect = higher value
assay.endpoint: inhibition (%)

{"compound": "CC1=CC(C)(C)N2C(=O)C3(NCCc4c3[nH]c3ccccc43)c3cc(C)cc1c32 (centres undefined)", "target.system": "Lethal factor (Bacillus anthracis) (UniProt P15917)", "assay.endpoint": "inhibition", "unit.name": "%", "measured.number": 0.2}
{"compound": "CN(C)CCN(Cc1ccc(Cl)cc1)c1ccccn1", "target.system": "Lethal factor (Bacillus anthracis) (UniProt P15917)", "assay.endpoint": "inhibition", "unit.name": "%", "measured.number": -1.2}
{"compound": "NCCc1cnc[nH]1", "target.system": "Lethal factor (Bacillus anthracis) (UniProt P15917)", "assay.endpoint": "inhibition", "unit.name": "%", "measured.number": 3.7}
{"compound": "CC(C)(C)C(=O)NC(=S)Nc1sc2c(c1C(N)=O)CCC2", "target.system": "Lethal factor (Bacillus anthracis) (UniProt P15917)", "assay.endpoint": "inhibition", "unit.name": "%", "measured.number": -1.2}
{"compound": "CC(=O)OCC(=O)[C@@]1(O)[C@H](C)C[C@H]2[C@@H]3CCC4=CC(=O)C=C[C@]4(C)[C@@]3(F)[C@@H](O)C[C@@]21C", "target.system": "Lethal factor (Bacillus anthracis) (UniProt P15917)", "assay.endpoint": "inhibition", "unit.name": "%", "measured.number": 6.7}
{"compound": "CN1CCN(C(=O)OC2c3nccnc3C(=O)N2c2ccc(Cl)cn2)CC1 (centres undefined)", "target.system": "Lethal factor (Bacillus anthracis) (UniProt P15917)", "assay.endpoint": "inhibition", "unit.name": "%", "measured.number": 1.7}
{"compound": "CCN(CC)CCNc1ccc(CO)c2sc3ccccc3c(=O)c12", "target.system": "Lethal factor (Bacillus anthracis) (UniProt P15917)", "assay.endpoint": "inhibition", "unit.name": "%", "measured.number": -7}
{"compound": "Cc1ccc(C2=NOC(=O)/C2=C\\C=C\\c2ccccc2)cc1", "target.system": "Lethal factor (Bacillus anthracis) (UniProt P15917)", "assay.endpoint": "inhibition", "unit.name": "%", "measured.number": 0.5}
{"compound": "COc1ccc(N2CCN(C(=S)NCc3ccccc3)CC2)cc1", "target.system": "Lethal factor (Bacillus anthracis) (UniProt P15917)", "assay.endpoint": "inhibition", "unit.name": "%", "measured.number": 2.2}
{"compound": "COc1ccc(CCCC(=O)O)c(C)c1", "target.system": "Lethal factor (Bacillus anthracis) (UniProt P15917)", "assay.endpoint": "inhibition", "unit.name": "%", "measured.number": 6.1}
{"compound": "COc1ccc(C2C3C(C)=NN=C3CC(C)(O)C2C(C)=O)cc1 (centres undefined)", "target.system": "Lethal factor (Bacillus anthracis) (UniProt P15917)", "assay.endpoint": "inhibition", "unit.name": "%", "measured.number": 4}
{"compound": "CC(=O)N(CCC(Cc1ccccc1)c1ccco1)Cc1ccco1 (centres undefined)", "target.system": "Lethal factor (Bacillus anthracis) (UniProt P15917)", "assay.endpoint": "inhibition", "unit.name": "%", "measured.number": 0.3}
{"compound": "CS(=O)(=O)Nc1cccc(C(=O)CC2(O)C(=O)Nc3ccc(Br)cc32)c1 (centres undefined)", "target.system": "Lethal factor (Bacillus anthracis) (UniProt P15917)", "assay.endpoint": "inhibition", "unit.name": "%", "measured.number": 6.6}
{"compound": "O=C(O)C1[C@H]2C(=O)N(C3CCCC3)C[C@]23C=C[C@H]1O3 (some centres undefined)", "target.system": "Lethal factor (Bacillus anthracis) (UniProt P15917)", "assay.endpoint": "inhibition", "unit.name": "%", "measured.number": 5.6}

Reference source: PubChem BioAssay
